// data source = ChEMBL document CHEMBL4411260

- Experimental details: Thermodynamic equilibrium solubility of the compound at pH 7.64 phosphate buffer saline by UPLC analysis
- Format: physicochemical
- Condition: read-out: Therm_solubility
Endpoint label: solubility thermodynamic (µg/mL)
Report the value in µg/mL with no unit label.

Query :: # solubility thermodynamic lookup, item Cn1cc(Nc2nccc(N3CC4CC[C@H](C3)N4C(=O)[C@@H]3CC3(F)F)n2)cn1 (single isomer, unassigned)
Result :: 4840

----------
Target or system Tyrosine-protein kinase JAK2 (Homo sapiens); recorded quantity IC50.

# annotated cases, reported IC50 shown
CCNC(=O)c1ccc(Nc2ncc(F)c(N3CC4CC[C@H](C3)N4C(=O)C3CC3)n2)nc1 (single isomer, unassigned) = > 10 µM
CCNC(=O)c1ccc(Nc2nccc(N3C[C@@H]4C[C@H]3CN4C(=O)CC#N)n2)cc1 = > 9.97 µM

Then there is this molecule:
Query :: For the record `CCNC(=O)c1ccc(Nc2nccc(N3C[C@@H]4C[C@H]3CN4C(=O)C3CC3)n2)cc1` , what value of IC50 is listed for Tyrosine-protein kinase JAK2 (Homo sapiens)?
Result :: > 10 µM

----------
- Experimental details: physchem
- Condition: octanol/water phosphate buffer, pH 7.4
Mark -1 for logD values under 2, and 1 for everything at or above.

Known results for compounds:
CCNC(=O)c1ncc(Nc2ncc(F)c(N3CC4CC[C@H](C3)N4C(=O)C3CC3)n2)cc1C (single isomer, unassigned) = 1
CCNC(=O)c1ccc(Nc2nccc(N3CC4CC[C@H](C3)N4C(=O)C3CC3)n2)cc1 (single isomer, unassigned) = -1
Cn1cc(Nc2nccc(N3CC4CC[C@H](C3)N4C(=O)[C@@H]3CC3(F)F)n2)cn1 (single isomer, unassigned) = -1
Cn1cc(Nc2nccc(N3CC4CC[C@H](C3)N4C(=O)C3CC3)n2)cn1 (single isomer, unassigned) = -1
Cn1cc(Nc2nccc(N3CC4CC[C@H](C3)N4C(=O)NCC#N)n2)cn1 (single isomer, unassigned) = -1

Query :: Record CCNC(=O)c1ccc(Nc2ncc(F)c(N3CC4CC[C@H](C3)N4C(=O)C3CC3)n2)nc1 (single isomer, unassigned) ; criterion: logD no lower than 2. Met?
Result :: 1

Query :: Reported logD reaches at least 2 for Cn1cc(Nc2nccc(N3CC4CC[C@H](C3)N4C(=O)NCC(F)(F)F)n2)cn1 (single isomer, unassigned) ?
Result :: -1

Query :: Item Cn1cc(Nc2nccc(N3CC4CC[C@H](C3)N4C(=O)[C@H]3CC3(F)F)n2)cn1 (single isomer, unassigned) with logD of 2 or above?
Result :: -1

Query :: Entry O=C(C1CC1)N1C2CC[C@@H]1CN(c1nc(Nc3cnn(CCO)c3)ncc1F)C2 (single isomer, unassigned) : is its logD no less than 2?
Result :: -1
